# assay text: XTT assay, direct cytotoxicity upon uninfected CEM-SS target cells
# Type: cell-based, human
# assay context: human, uninfected CEM-SS cells; FIGS. 4A-D, CEM-SS cells, 6 days
assay endpoint: IC50 at 6 days

Q: Need IC50 at 6 days, item CCCc1cc(=O)oc2c3c(c4c(c12)OC(C)(C)C=C4)O[C@H](C)[C@@H](C)[C@@H]3O [calanolide A]
Ans: ~13 µM

---

# Test system: CEM-SS cells
# assay text: BCECF assay, direct cytotoxicity upon uninfected CEM-SS target cells
# Type: cell-based, human
# assay context: Homo sapiens; quadruplicate tests, cytotoxicity to CEM-SS; read-out: IC50 μM (± SD) BCECF
assay endpoint: IC50 (µM)
Your answer should be a plain number; it is taken to be in µM.

Q: For the compound CCCc1cc(=O)oc2c3c(c4c(c12)OC(C)(C)C=C4)O[C@H](C)[C@@H](C)[C@@H]3O [calanolide A] , what IC50 is on record?
Ans: 14.3
